Reported values of normalized growth for individual entries
assay: chemical genetic growth profiling, strain panel (AID 1159580);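 note: tested at 20 µM; growth read once vehicle control cultures reached saturation at 30 °C; 1 = growth at the plate median or of vehicle wells; lower values mean less growth of the strain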; conditions: S. cerevisiae deletion strains, growth OD, locus YOR083W, strain WHI5, stronger effect = lower value
Out of some 5,500 compounds screened, about 2,000 (36%) were called active. Not shown: some 18% with an inconclusive outcome. The list shows a part of the results.
Format: numeric value only, no unit, no commentary.

Past entries and their recorded results:
{"compound": "CCCCCCCCCCCC1=C(O)C(=O)C=C(O)C1=O", "normalized growth": 0.807}
{"compound": "CC(=O)Oc1ccc2c(c1OC(C)=O)OCC1(O)Cc3c(cc(OC(C)=O)c(OC(C)=O)c3OC(C)=O)C21 (stereo unspecified)", "normalized growth": 0.984}
{"compound": "CCc1cc(C(N)=S)ccn1", "normalized growth": 1.05}

INPUT: Any idea what its normalized growth is? The compound is CC(=O)OC(C)C[N+](C)(C)C (stereo unspecified)
OUTPUT: 0.977

INPUT: Next compound up: `CC(C)[N+](C)(CCC(C(N)=O)(c1ccccc1)c1ccccc1)C(C)C`
OUTPUT: 0.963

INPUT: `CCOC(=O)c1c(C)cc(OC)cc1O` , same question.
OUTPUT: 0.955

INPUT: Repeat for the following compound: OCC(O)C(O)C(O)C(O)C(O)CO (stereo unspecified)
OUTPUT: 0.996

INPUT: Ok, now `Cc1cc(OC(=O)c2c(C)cc(O)cc2O)cc(O)c1C(=O)O`
OUTPUT: 1.03

INPUT: Do the same for CO[C@@]1(NC(=O)C(C(=O)O)c2ccc(O)cc2)C(=O)N2C(C(=O)O)=C(CSc3nnnn3C)CO[C@@H]21 (stereo partly specified) please
OUTPUT: 0.961

INPUT: Another: C[C@]12C=CC(=O)C=C1CCC1C2[C@@H](O)C[C@@]2(C)C1CC[C@]2(O)C(=O)COP(=O)(O)O (stereo partly specified)
OUTPUT: 1.01

INPUT: Ok, now `COC(=O)c1c(C)cc(O)cc1O`
OUTPUT: 1.01

###

assay: chemical genetic growth profiling, strain panel (AID 1159580); conditions: S. cerevisiae deletion strains, growth OD, locus YGL086W, strain mad1, stronger effect = lower value
The campaign covered roughly 5,500 compounds. About 2,000 (36%) were called active. About 18% were inconclusive and are not listed. The list shows a part of the results.
measurementLabel: normalized growth
Give the figure by itself; no unit, no explanation.

Worked examples follow.
{"molecule": "CCc1cc(C(N)=S)ccn1", "normalized growth": 0.964}
{"molecule": "O=c1c(O)c(-c2cc(O)c(O)c(O)c2)oc2cc(O)cc(O)c12", "normalized growth": 1}
{"molecule": "CC1(C)C=CC(=O)[C@@]2(C)C1CC(=O)[C@]1(C)C2CC[C@@]2(C)[C@H](c3ccoc3)OC(=O)C3OC321 (stereo partly specified)", "normalized growth": 0.979}

INPUT: Would you kindly share the measured normalized growth for CC1(C)C(=O)C=C[C@@]2(C)C1CC(=O)[C@]1(C)C2CC[C@@]2(C)[C@H](c3ccoc3)OC(=O)[C@H]3O[C@]321 (stereo partly specified) ?
OUTPUT: 1.01

INPUT: And then CO[C@@]1(NC(=O)C(C(=O)O)c2ccc(O)cc2)C(=O)N2C(C(=O)O)=C(CSc3nnnn3C)CO[C@@H]21 (stereo partly specified) , what is it?
OUTPUT: 1.01

INPUT: Please give the result for NC(=O)NCCCC(N)C(=O)O (stereo unspecified) too.
OUTPUT: 0.997

INPUT: Param item: NC(CSCSCC(N)C(=O)O)C(=O)O (stereo unspecified)
OUTPUT: 1

INPUT: Would you kindly repeat that for CC(CC(O)C1OC1(C)C)[C@@H]1CCC2(C)C3=CCC4C(C)(C)C(=O)CCC4(C)C3CC[C@@]12C (stereo partly specified) ?
OUTPUT: 1.05

INPUT: And for CC(C1OC(C)(C)C(O)C1O)[C@@H]1CC[C@]2(C)C3=CCC4C(C)(C)C(=O)CC[C@]4(C)C3CC[C@@]12C (stereo partly specified) ?
OUTPUT: 1.03

INPUT: Thanks! And `CCOCN(C(=O)CCl)c1c(C)cccc1CC` ?
OUTPUT: 0.983

###

experiment: chemical genetic growth profiling, strain panel (AID 1159580);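 note: tested at 20 µM; growth read once vehicle control cultures reached saturation at 30 °C; 1 = growth at the plate median or of vehicle wells; lower values mean less growth of the strain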; settings: S. cerevisiae deletion strains, growth OD, locus YLR039C, strain RIC1, stronger effect = lower value
The whole screen tested about 5,500 compounds, of which about 2,000 (36%) were called active. Roughly 18% stayed inconclusive and do not appear here. Some of the results follow.
measurementLabel: normalized growth
Give only the figure.

{"compound": "NC(=O)NCCCC(N)C(=O)O (centres undefined)", "normalized growth": 1.03}

INPUT: Requested read-out: normalized growth. Entry: `O=[N+]([O-])c1ccc(OCCCOc2ccc([N+](=O)[O-])cc2)cc1`
OUTPUT: 0.966

INPUT: Also need `CCC(=O)c1c(O)cc(O)cc1O` , thanks.
OUTPUT: 0.938

INPUT: Item: CC(C)N(CCC(C(N)=O)(c1ccccc1)c1ccccn1)C(C)C (centres undefined)
OUTPUT: 0.972

INPUT: Next record, please: C[C@]12CCC3c4ccc(O)cc4CCC3C1CC[C@@H]2O (some centres undefined)
OUTPUT: 0.866

INPUT: How about this compound: COc1ccc2c(c1)CCC1C2CCC2(C)C1C[C@@H](O)C2O (some centres undefined)
OUTPUT: 0.947

INPUT: Follow-up item: COc1ccc2c(c1)CCC1C2CC[C@@]2(C)C1CC[C@@H]2O (some centres undefined)
OUTPUT: 0.351

###

In this section, each of the molecules is paired with its reported normalized growth.
assay: chemical genetic growth profiling, strain panel (AID 1159580);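 note: tested at 20 µM; growth read once vehicle control cultures reached saturation at 30 °C; 1 = growth at the plate median or of vehicle wells; lower values mean less growth of the strain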; settings: S. cerevisiae deletion strains, growth OD, locus YPR141C, strain kar3, stronger effect = lower value
Out of some 5,500 compounds screened, about 2,000 (36%) were called active. Inconclusive results (about 18%) are left out. This is one part of the list.
Answer with a bare number; do not write a unit.

Example cases with answers are listed next.
{"molecule": "CC1O[C@@H](Oc2c(-c3ccc(O)c(O)c3)oc3cc(O)cc(O)c3c2=O)[C@H](O)[C@H](O)[C@H]1O (stereo partly specified)", "valueReported": 0.975}
{"molecule": "CCOCN(C(=O)CCl)c1c(C)cccc1CC", "valueReported": 0.987}
{"molecule": "Cc1cc(C2CCCCC2)n(O)c(=O)c1", "valueReported": 0.0696}
{"molecule": "COC(=O)[C@]1(C)CCC[C@]2(C)c3ccc(C(C)C)cc3C(=O)CC12 (stereo partly specified)", "valueReported": 0.981}
{"molecule": "COC(=O)c1c(C)cc(OC)cc1O", "valueReported": 0.98}

INPUT: Return reported normalized growth; argument: CNC(C)C(O)c1ccccc1 (stereo unspecified)
OUTPUT: 1.02

INPUT: Input `NC(=O)CN1CCCC1=O`
OUTPUT: 1.01

INPUT: Cool, now `CCCCCc1c2c(cc(O)c1C(=O)O)OC(=O)c1c(cc(OC)cc1C(=O)CCCC)O2`
OUTPUT: 0.987

INPUT: Another molecule to look at: CC(C)c1c(O)ccc2c1CCC1[C@@](C)(C=O)CCC[C@]21C (stereo partly specified)
OUTPUT: 0.999

INPUT: Cool, now `CCOC(=O)NC1=C(C2CC2)C(=O)C(NC(=O)OCC)=C(C2CC2)C1=O`
OUTPUT: 0.984

INPUT: // same read-out, input: `CNC(=O)Oc1cccc2c1OC(C)(C)O2`
OUTPUT: 0.993

INPUT: Can you handle `O=c1c(O)c(-c2ccc(O)cc2O)oc2cc(O)cc(O)c12` next?
OUTPUT: 1.01

INPUT: Input `O=c1c(O)c(-c2ccc(O)c(O)c2)oc2cc(O)cc(O)c12`
OUTPUT: 1.01

INPUT: Try this molecule next: `COc1ccc(-c2cc(=O)c3c(O)cc(O[C@@H]4O[C@H](CO[C@H]5O[C@H](C)[C@@H](O)[C@H](O)[C@@H]5O)[C@@H](O)[C@H](O)[C@H]4O)cc3o2)cc1O`
OUTPUT: 0.972

###

assay: chemical genetic growth profiling, strain panel (AID 1159580);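 note: tested at 20 µM; growth read once vehicle control cultures reached saturation at 30 °C; 1 = growth at the plate median or of vehicle wells; lower values mean less growth of the strain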; settings: S. cerevisiae deletion strains, growth OD, locus YHR142W, strain chs7
Screen size: about 5,500 compounds; about 2,000 (36%) were called active. Not shown: some 18% with an inconclusive outcome. Cut-off read from the data, not from the text of the source: active = normalized growth mostly below about 0.91 (no sharp cut-off); inconclusive = no clear call, values can overlap the other calls; inactive = mostly above about 0.92. Some of the results follow.
Answer with one of the outcomes given here: true (active), false (inactive)

{"compound": "CC1(C)O[C@H]2CC(=O)OC[C@]23[C@H]2CC[C@@]4(C)[C@H](c5ccoc5)OC(=O)[C@H]5O[C@]54[C@]2(C)C(=O)C[C@@H]13", "className": "false"}
{"compound": "COc1ccc2c(c1)CCC1C2CC[C@@]2(C)C1CC[C@@H]2O (stereo partly specified)", "className": "true"}
{"compound": "NC(=O)c1ncn([C@@H]2O[C@H](CO)[C@@H](O)[C@H]2O)n1", "className": "false"}

INPUT: Which outcome did this test record for the compound `C=C(C)[C@H]1COc2cc3oc(=O)ccc3cc2O1` ?
OUTPUT: true

INPUT: O=c1ccc2cc(OC3OC(CO)C(O)C(O)C3O)c(O)cc2o1 (stereo unspecified) ?
OUTPUT: false

INPUT: // next record CCCCC1C(=O)N(c2ccccc2)N(c2ccc(O)cc2)C1=O (stereo unspecified)
OUTPUT: false

Value source: PubChem BioAssay AID1159580
